# System: Staphylococcus aureus MW2 (mecA+)
# assayProtocol: normalized DsRed fluorescence (growth of mecA+ strain) (fraction of control range); higher = more growth of mecA+ strain
# measurementParameters: compound concentration: 150 uM; cefoxitin: subinhibitory; fluorescent label: DsRed
measurementLabel: normalized DsRed fluorescence

[[record]]
molecule = "CCN1CCCC1CNC(=O)c1cc(S(=O)(=O)CC)c(N)cc1OC (centres undefined) [Amisulpride]"
measurementlabel = "normalized DsRed fluorescence"
experimentalresult = 0.816

[[record]]
molecule = "Cc1ccccc1OCC(O)CO (centres undefined)"
measurementlabel = "normalized DsRed fluorescence"
experimentalresult = 0.853

[[record]]
molecule = "NCCc1ccc(O)c(O)c1"
measurementlabel = "normalized DsRed fluorescence"
experimentalresult = 0.728

[[record]]
molecule = "CCC(NC(C)C)C(O)c1ccc(O)c(O)c1 (centres undefined)"
measurementlabel = "normalized DsRed fluorescence"
experimentalresult = 0.581

[[record]]
molecule = "CN(C)CCN(Cc1cccs1)c1ccccn1"
measurementlabel = "normalized DsRed fluorescence"
experimentalresult = 0.778

[[record]]
molecule = "c1ccc(CN(CC2=NCCN2)c2ccccc2)cc1"
measurementlabel = "normalized DsRed fluorescence"
experimentalresult = 0.762

[[record]]
molecule = "CCN(C(=O)c1c(O)c2c(Cl)cccc2n(C)c1=O)c1ccccc1"
measurementlabel = "normalized DsRed fluorescence"
experimentalresult = 0.805

[[record]]
molecule = "NNC(=O)c1ccncc1"
measurementlabel = "normalized DsRed fluorescence"
experimentalresult = 1.03

[[record]]
molecule = "Cc1cccc(Nc2ccccc2C(=O)O)c1C"
measurementlabel = "normalized DsRed fluorescence"
experimentalresult = 0.169

[[record]]
molecule = "N#Cc1ccc2[nH]cc(CCCCN3CCN(c4ccc5oc(C(N)=O)cc5c4)CC3)c2c1"
measurementlabel = "normalized DsRed fluorescence"
experimentalresult = 0.987

[[record]]
molecule = "Nc1nc(CC(=O)Nc2ccc(CCNC[C@H](O)c3ccccc3)cc2)cs1"
measurementlabel = "normalized DsRed fluorescence"
experimentalresult = 1.03

[[record]]
molecule = "Clc1ccc2c(c1)CCc1cccnc1C2=C1CCNCC1"
measurementlabel = "normalized DsRed fluorescence"
experimentalresult = 0.936

[[record]]
molecule = "COc1ccc2cc(CCC(C)=O)ccc2c1"
measurementlabel = "normalized DsRed fluorescence"
experimentalresult = 0.79

[[record]]
molecule = "Oc1ncnc2[nH]ncc12"
measurementlabel = "normalized DsRed fluorescence"
experimentalresult = 0.531

[[record]]
molecule = "N[C@@H](Cc1ccc(O)c(O)c1)C(=O)O"
measurementlabel = "normalized DsRed fluorescence"
experimentalresult = 0.611

[[record]]
molecule = "CC(C)C(=O)Nc1ccc([N+](=O)[O-])c(C(F)(F)F)c1"
measurementlabel = "normalized DsRed fluorescence"
experimentalresult = 1.4

[[record]]
molecule = "CN1C(=O)OC(C)(C)C1=O"
measurementlabel = "normalized DsRed fluorescence"
experimentalresult = 1.31

[[record]]
molecule = "COC(=O)[C@@H]1[C@H]2C[C@H]3c4[nH]c5ccccc5c4CCN3C[C@@H]2CC[C@@H]1O"
measurementlabel = "normalized DsRed fluorescence"
experimentalresult = 0.809

[[record]]
molecule = "CCC(=O)O[C@]1(C(=O)CCl)[C@@H](C)C[C@H]2[C@@H]3CCC4=CC(=O)C=C[C@]4(C)[C@@]3(F)[C@@H](O)C[C@@]21C [Clobetasol propionate]"
measurementlabel = "normalized DsRed fluorescence"
experimentalresult = 1.15

[[record]]
molecule = "CC1=NN(c2ccc(C)c(C)c2)C(=O)/C1=N\\Nc1cccc(-c2cccc(C(=O)O)c2)c1O"
measurementlabel = "normalized DsRed fluorescence"
experimentalresult = 0.021

[[record]]
molecule = "CC(C)(Sc1cc(C(C)(C)C)c(O)c(C(C)(C)C)c1)Sc1cc(C(C)(C)C)c(O)c(C(C)(C)C)c1"
measurementlabel = "normalized DsRed fluorescence"
experimentalresult = 0.839

[[record]]
molecule = "COc1cc(C(=O)NS(=O)(=O)c2ccccc2C)ccc1Cc1cn(C)c2ccc(NC(=O)OC3CCCC3)cc12 [Zafirlukast (Accolate)]"
measurementlabel = "normalized DsRed fluorescence"
experimentalresult = 0.0292

[[record]]
molecule = "c1ccc2[nH]c(-c3cscn3)nc2c1"
measurementlabel = "normalized DsRed fluorescence"
experimentalresult = 0.444

[[record]]
molecule = "CCCCC(=O)N(Cc1ccc(-c2ccccc2-c2nnn[nH]2)cc1)[C@H](C(=O)O)C(C)C"
measurementlabel = "normalized DsRed fluorescence"
experimentalresult = 0.898

